test system: OXPHOS gene expression; assay type: cell-based, mouse; settings: Conc 20 μM; normalized score vs mock-treated (DMSO) wells
Below, each entry is listed alongside its reported GE-HTS (composite Z-score).
Reply with just the number.

The compound identified as CC(C)c1ccc2c(c1)CCC1[C@](C)(CN)CCC[C@]21C.O=S(=O)(O)O (stereo partly shown) [18-aminoabieta-8,11,13-triene sulfate] registered its GE-HTS (composite Z-score) at −0.727

// recorded GE-HTS (composite Z-score) for COc1ccc(-c2c(OC)c3c(OC)c4c(cc3oc2=O)OC(C)(C)C=C4)cc1 [robustic acid methyl ether, reference compound] : 0.230

The compound listed as C=C(C)C1Cc2c(ccc(C(=O)O)c2O)O1 (stereo not shown) has a reported GE-HTS (composite Z-score) of −0.746

Lab note: measured GE-HTS (composite Z-score) of O=C(O)c1nc2cc(Cl)c(Cl)cc2nc1O was −0.320

----------
tested on: cytochrome c; assay type: cell-based, mouse; conditions: normalized composite Z-score vs mock-treated (DMSO) wells; Conc 20 μM
VALUE TYPE: cyt c
Would you mind answering with just the numeric figure?

Sample records with cyt c:
INSERT INTO results (compound, endpoint_result) VALUES
  ('NCCC(=O)c1ccccc1N [kynuramine]', 1.161),
  ('C[C@]12CC[C@H]3[C@@H](CC[C@]4(O)C[C@@H](O)CC[C@]34C=O)[C@@]1(O)CC[C@@H]2C1=CC(=O)OC1 [strophanthidin]', 0.687);

Looking up CC(=O)O[C@]1(C)CC[C@@]23C[C@@H]1C(C)(C)[C@@H]2CC[C@H]3C [cedryl acetate] , I found its cyt c recorded as 0.388

Lab note: Cc1cc(=O)c2c(O)c3c(cc2o1)OCC(C)CC3 (stereo not shown) [dihydroptaeroxylin] gave cyt c of 0.403

Note to self: cyt c recorded for CC(=O)O[C@@H]1CC2C(C)(C)C(=O)CC[C@]2(C)C2CC[C@]3(C)C(=CC(=O)O[C@H]3c3ccoc3)[C@@]21C (stereo partly shown) [dihydrodeoxygedunin] was 0.751

Short answer for COC(=O)C[C@H]1C(C)(C)[C@@H](O)[C@@H]2CC3=C4CC(O)O[C@@H](c5ccoc5)[C@]4(C)CCC3[C@@]1(C)C2=O (stereo partly drawn) [3,16-dideoxymexicanolide-3beta-diol] : cyt c was −0.130

The reported value for COc1ccc(-c2coc3c(OC)c(O)ccc3c2=O)cc1 [7-hydroxy-8,4′-dimethoxyisoflavone] in terms of cyt c is 0.363

----------
tested on: cytochrome c; assay type: cell-based, mouse; details: composite Z-score vs DMSO; Conc 20 μM
Entries and their cyt c values follow.
// return just the number, without any unit appended

Example entries begin here.
INSERT INTO assay_data (compound, value_type, endpoint_result) VALUES
  ('CC(C)=CCc1c(O)cc2occ(-c3ccc4c(c3)OCO4)c(=O)c2c1O', 'cyt c', '−0.126'),
  ('O=c1c(-c2cc(O)c(O)c(O)c2)coc2cc(O)c(O)c(O)c12', 'cyt c', 0.410),
  ('O[C@H]1[C@H]2c3cc4c(cc3CN3CCC(=C[C@@H]1O)[C@H]23)OCO4 [Lycorine, reference compound]', 'cyt c', '−1.288');

Now consider the entry below.
The reported value for C[C@H]1O[C@@H](n2cc(F)c(=O)[nH]c2=O)[C@H](O)[C@@H]1O in terms of cyt c is 0.338

----------
test system: reactive oxygen species; format: cell-based, mouse; details: 20 μM; composite Z-score vs DMSO
Decide by ROS: equal to or exceeding 0.5 means TRUE, less means FALSE.

Asked: Is it the case that Nc1ccc(/N=N/c2ccccc2)c(N)n1 [phenazopyridine] has ROS reaching or exceeding 0.5?
Given back: TRUE

Asked: Answer whether ROS of CCOC(=O)[C@H](CCc1ccccc1)N[C@@H](C)C(=O)N1Cc2ccccc2C[C@H]1C(=O)O [quinapril] is greater than or equal to 0.5.
Given back: TRUE

Asked: Quick check, ROS >= 0.5? CC1COc2c(N3CCN(C)CC3)c(F)cc3c(=O)c(C(=O)O)cn1c23 (centres unmarked) [ofloxacin]
Given back: FALSE

Asked: Could you verify whether the entry CC(=O)OCC[N+](C)(C)C [acetylcholine] shows ROS of no less than 0.5?
Given back: TRUE

Asked: Is it the case that CC(=O)CCCCn1c(=O)c2c(ncn2C)n(C)c1=O [pentoxifylline] has ROS reaching or exceeding 0.5?
Given back: FALSE

Asked: # check: ROS of ClC1=C(Cl)C2(Cl)C3C4CC(C5OC45)C3C1(Cl)C2(Cl)Cl (centres unmarked) [endrin] is greater than or equal to 0.5
Given back: TRUE

Asked: I'd appreciate it if you could say whether COc1cc2ccc(=O)oc2cc1O [scopoletin] has ROS at least equal to 0.5.
Given back: TRUE

Asked: Decide: is the reported value of ROS for CCOC(=O)CCC(=O)O[C@H]1[C@H](O[C@@H]2[C@@H](C)[C@H](O[C@H]3C[C@@](C)(OC)[C@@H](O)[C@H](C)O3)[C@@H](C)C(=O)O[C@H](CC)[C@@](C)(O)[C@H](O)[C@@H](C)C(=O)[C@H](C)C[C@@]2(C)O)O[C@H](C)C[C@@H]1N(C)C [erythromycin ethylsuccinate] equal to or greater than 0.5?
Given back: TRUE

Asked: Does the reported ROS for Cc1cc(=O)[nH]c(=S)[nH]1 [methylthiouracil] fall at or above the 0.5 mark?
Given back: TRUE

----------
test system: reactive oxygen species; assay type: cell-based, mouse
Each record gets a class by ROS: class A = under 0.1, class B = from 0.1 up to 0.7, class C = 0.7 and over

Some solved entries appear below for comparison.
INSERT INTO results (compound, group) VALUES
  ('C[C@]12CC[C@@H](O)C[C@H]1CC[C@@H]1[C@@H]2CC[C@]2(C)C(=O)CC[C@@H]12 [3-alpha-hydroxy-5-beta-androstan-17-one]', 'class C'),
  ('COc1cccc2c1C(=O)c1c(O)c3c(c(O)c1C2=O)C[C@@](O)(C(C)=O)C[C@@H]3O[C@H]1C[C@H](N)[C@H](O)[C@H](C)O1 [Daunorubicin, reference compound]', 'class A'),
  ('CN1CCCC(CC2c3ccccc3Sc3ccccc32)C1 (centres unmarked) [metixene]', 'class A');

Asked: Could you tell me which band CC1(C)S[C@@H]2[C@H](NC(=O)[C@H](N)c3ccc(O)cc3)C(=O)N2[C@H]1C(=O)O [amoxicillin] belongs to?
Given back: class C

Asked: Band for the recorded ROS of O=C(COc1ccc(Cl)cc1)N1CCN(Cc2ccc3c(c2)OCO3)CC1 [fipexide] ?
Given back: class B

Asked: Hi, small favor: classify COc1cc(/C=C/C(=O)O)cc(OC)c1OC [sinapic acid methyl ether] by its ROS when you get a moment.
Given back: class C

Asked: Lab log: NS(=O)(=O)c1cc(C2(O)NC(=O)c3ccccc32)ccc1Cl (centres unmarked) [chlorthalidone] — assign ROS category
Given back: class C

----------
tested on: mtOXPHOS transcripts; format: cell-based, mouse; details: composite Z-score vs DMSO wells; Conc 20 μM
Lab note: anything with mitoOX at or over 0.2 counts as True; the rest go in False.

Here are 10 compounds together with their reported answers.
INSERT INTO measurements (compound, group) VALUES
  ('CO[C@H]1[C@H](O)[C@H](O[C@H]2CC[C@@]3(C=O)[C@H](CC[C@@H]4[C@@H]3CC[C@]3(C)[C@@H](C5=CC(=O)OC5)CC[C@]43O)C2)O[C@@H](C)[C@@H]1O [peruvoside]', 'True'),
  ('C[N+](C)(C)CCCCCC[N+](C)(C)C [hexamethonium bromide]', 'False'),
  ('CC(C)(Sc1cc(C(C)(C)C)c(O)c(C(C)(C)C)c1)Sc1cc(C(C)(C)C)c(O)c(C(C)(C)C)c1 [probucol]', 'False'),
  ('C=C1c2cccc(O)c2C(=O)C2=C(O)[C@]3(O)C(=O)C(C(N)=O)=C(O)[C@@H](N(C)C)[C@@H]3[C@@H](O)[C@H]12 [methacycline, reference compound]', 'True'),
  ('C[N+]1(C)CCCC(OC(=O)C(O)(c2ccccc2)c2ccccc2)C1 (stereo not drawn) [mepenzolate]', 'False'),
  ('CC(=O)O[C@H]1C[C@H](O[C@H]2[C@@H](O)C[C@H](O[C@H]3[C@@H](O)C[C@H](O[C@H]4CC[C@@]5(C)[C@H](CC[C@@H]6[C@@H]5C[C@@H](O)[C@]5(C)[C@@H](C7=CC(=O)OC7)CC[C@]65O)C4)O[C@@H]3C)O[C@@H]2C)O[C@H](C)[C@H]1O[C@@H]1O[C@H](CO)[C@@H](O)[C@H](O)[C@H]1O [lanatoside C]', 'False'),
  ('CNCCc1ccccn1 [betahistine]', 'False'),
  ('CN1C[C@H](C(=O)N[C@]2(C)O[C@@]3(O)[C@@H]4CCCN4C(=O)[C@H](Cc4ccccc4)N3C2=O)C[C@@H]2c3cccc4[nH]cc(c34)C[C@H]21 [dihydroergotamine]', 'False'),
  ('Oc1c(Cl)cc(Cl)cc1Sc1cc(Cl)cc(Cl)c1O [bithionol]', 'False'),
  ('CC1=C2C(=CO[C@H](C)[C@H]2C)C(O)=C(C(=O)O)C1=O [citrinin]', 'True');

Asked: Is mitoOX at least 0.2? Consider CCn1cc(C(=O)O)c(=O)c2cc3c(cc21)OCO3 [oxolinic acid]
Given back: False

Asked: Check if mitoOX >= 0.2 (inclusive). Item: CC(=O)N[C@H]1[C@H]([C@@H](O)[C@@H](O)CO)O[C@@](O)(C(=O)O)C[C@@H]1O [N-acetylneuramic acid]
Given back: True

// provenance: patent US20090143279A1
